Each record here notes measured Kd.
- MEASUREMENT_TARGET: T1, human GDNF structured region, residues 110-211 (hGDNF^mat) (human, UniProt P39905 110-211)
- T1 chain: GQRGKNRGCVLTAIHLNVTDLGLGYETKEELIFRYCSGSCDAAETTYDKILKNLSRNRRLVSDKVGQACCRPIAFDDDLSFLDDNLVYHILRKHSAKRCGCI
- PROCEDURE_TEXT: SPR
Form entry: value (nM) — number only.

BINDER	NUMBER
hGFRα1^D1-CT-K251E (protein) DRLDCVKASDQCLKEQSCSTKYRTLRQCVAGKETNFSLASGLEAKDECRSAMEALKQKSLYNCRCKRGMKKEKNCLRIYWSMYQSLQGNDLLEDSPYEPVNSRLSDIFRVVPFISDVFQQVEHIPKGNNCLDAAKACNLDDICKKYRSAYITPCTTSVSNDVCNRRKCHKALRQFFDKVPAKHSYGMLFCSCRDIACTERRRQTIVPVCSYEEREKPNCLNLQDSCETNYICRSRLADFFTNCQPESRSVSSCLKENYADCLLAYSGLIGTVMTPNYIDSSSLSVAPWCDCSNSGNDLEECLKFLNFFKDNTCLKNAIQAFGNGSDVTVWQPAFPVQTTTATTTTALRVKNKPLGPAGSENEIPTHVLPPCANLQAQKLKSNVSGNTHLCISNGNYEKEG	48

The value of Kd measured for the binder human GFRα1 residues 150-424 (hGFRα1^D2-CT) (domain or fragment) KGNNCLDAAKACNLDDICKKYRSAYITPCTTSVSNDVCNRRKCHKALRQFFDKVPAKHSYGMLFCSCRDIACTERRRQTIVPVCSYEEREKPNCLNLQDSCKTNYICRSRLADFFTNCQPESRSVSSCLKENYADCLLAYSGLIGTVMTPNYIDSSSLSVAPWCDCSNSGNDLEECLKFLNFFKDNTCLKNAIQAFGNGSDVTVWQPAFPVQTTTATTTTALRVKNKPLGPAGSENEIPTHVLPPCANLQAQKLKSNVSGNTHLCISNGNYEKEG turned out to be 71

Recorded values, source paper PMC10661694.
